measured-target: full-length beta-Catenin (Uniprot ID P35222) (Homo sapiens, UniProt P35222)
Construct: 10 nM full-length beta-Catenin (Uniprot ID P35222)
Sequence (P35222 1-781): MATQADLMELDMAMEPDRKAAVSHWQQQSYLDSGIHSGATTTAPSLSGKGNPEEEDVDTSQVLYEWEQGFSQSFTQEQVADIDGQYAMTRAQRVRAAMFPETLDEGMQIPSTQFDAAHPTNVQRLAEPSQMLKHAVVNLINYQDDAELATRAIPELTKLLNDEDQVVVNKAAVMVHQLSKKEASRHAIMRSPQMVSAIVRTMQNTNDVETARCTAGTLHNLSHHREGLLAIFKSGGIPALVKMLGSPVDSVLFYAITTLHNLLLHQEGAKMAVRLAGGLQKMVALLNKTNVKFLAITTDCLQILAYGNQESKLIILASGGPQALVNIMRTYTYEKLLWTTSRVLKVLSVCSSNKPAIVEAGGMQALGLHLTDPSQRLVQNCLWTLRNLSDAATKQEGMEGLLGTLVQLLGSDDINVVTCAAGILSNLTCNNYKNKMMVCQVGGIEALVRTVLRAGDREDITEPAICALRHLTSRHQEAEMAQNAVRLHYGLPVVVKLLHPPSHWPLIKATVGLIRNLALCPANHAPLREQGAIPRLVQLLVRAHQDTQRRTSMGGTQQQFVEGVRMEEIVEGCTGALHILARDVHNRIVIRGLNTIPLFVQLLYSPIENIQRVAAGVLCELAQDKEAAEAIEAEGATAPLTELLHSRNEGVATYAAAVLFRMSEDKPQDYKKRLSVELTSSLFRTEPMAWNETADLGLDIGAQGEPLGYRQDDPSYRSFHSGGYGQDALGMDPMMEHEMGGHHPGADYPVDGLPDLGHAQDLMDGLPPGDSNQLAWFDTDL
assay-overview: Fluorescence polarization IC50 (beta-catenin / 5FAM-TCF4 10-53 competition)
Assay type: binding
condition-notes: fluorescence polarization; read-out: beta-Catenin FP IC50
measurement-name: IC50 (nM)
Could you give me the number in nM? Just the number is fine.

CC(=O)N1CCC[C@]12CC=CCCCC1(CCCC=CCCCOC(=O)N3CC[C@@](C(=O)N[C@@H](Cc4ccsc4)C(=O)N[C@@H](Cc4csc5ccccc45)C(=O)N[C@@H](CCC(N)=O)C(N)=O)(C3)NC(=O)[C@H](CC(C)C)NC(=O)[C@H](Cc3ccccc3)NC(=O)[C@H](C)NC(=O)[C@H](C)NC(=O)[C@H](Cc3cccc(C(=O)O)c3)NC(=O)[C@H](CC(=O)O)NC1=O)NC(=O)[C@H](CC(C)C)NC(=O)[C@H](CC(=O)O)NC2=O (some centres unmarked): 6

// switching to the query compound
Exercise: State, in one line, measured IC50 of CC(=O)N1CCC[C@]12CC=CCCCC1(CCCC=CCCCOC(=O)N3CC[C@@](C(=O)N[C@@H](Cc4ccsc4)C(=O)N[C@@H](Cc4csc5ccccc45)C(=O)N[C@@H](CO)C(N)=O)(C3)NC(=O)[C@H](CC(C)C)NC(=O)[C@H](Cc3ccccc3)NC(=O)[C@H](C)NC(=O)[C@H](C)NC(=O)[C@H](Cc3ccc(F)c(C(=O)O)c3)NC(=O)[C@H](CC(=O)O)NC1=O)NC(=O)[C@H](CC(C)(C)C)NC(=O)[C@H](CC(=O)O)NC2=O (some centres unmarked)
Key: 11

Measured values drawn from patent US20240116985A1 for this set.
